target: hA2A AR (Homo sapiens, UniProt P29274); construct: expressed in transfected cells; host or cells: CHO cells, stably transfected; test: Radioligand binding at human A2A ARs, displacement of [3H]NECA, membranes of transfected CHO cells; details: displacement of specific [3H]-NECA binding, CHO cells; geometric means with 95% confidence limits; read-out: hA2A AR (Ki nM)
Sequence (P29274 whole entry): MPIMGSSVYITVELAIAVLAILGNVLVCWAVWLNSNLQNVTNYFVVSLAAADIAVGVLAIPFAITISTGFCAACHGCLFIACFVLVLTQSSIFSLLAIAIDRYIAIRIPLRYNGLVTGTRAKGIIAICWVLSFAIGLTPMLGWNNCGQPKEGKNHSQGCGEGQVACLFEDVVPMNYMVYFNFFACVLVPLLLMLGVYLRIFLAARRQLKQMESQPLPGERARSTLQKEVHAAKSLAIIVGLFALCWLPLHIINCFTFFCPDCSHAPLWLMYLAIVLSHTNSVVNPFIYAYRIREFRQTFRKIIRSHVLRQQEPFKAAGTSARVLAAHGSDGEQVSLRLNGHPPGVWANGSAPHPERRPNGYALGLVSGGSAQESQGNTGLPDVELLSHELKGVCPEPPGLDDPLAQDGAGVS
experimental.readout: Ki

Solved entries (count: 2):
>>> print(df.to_string())
                               smiles_input  experimental_readout  reported_result
0  Cn1cc2c(nc(NC(=O)Nc3ccccc3)n3nc(-c4cnn(Cc5cccc(C(F)(F)F)c5)c4)nc23)n1                    Ki          2460 nM
1  COc1ccc(CC(=O)Nc2nc3nn(C)cc3c3nc(-c4cnn(Cc5cccc(C(F)(F)F)c5)c4)nn23)cc1                    Ki         20500 nM

Ask | Recall and state the measured Ki for Cn1cc2c(nc(N)n3nc(-c4cnn(Cc5cccc(C(F)(F)F)c5)c4)nc23)n1 .
Reply | 8280 nM

Ask | Return Ki (reported value) for this molecule: Cn1cc2c(nc(NC(=O)Cc3ccccc3)n3nc(-c4cnn(Cc5cccc(C(F)(F)F)c5)c4)nc23)n1
Reply | > 100000 nM

Ask | Identify the reported Ki for the following entry. Cn1cc2c(nc(NC(=O)c3ccccc3)n3nc(-c4cnn(Cc5cccc(C(F)(F)F)c5)c4)nc23)n1
Reply | > 100000 nM
